B1: mRNA-splicing (parent)
chain: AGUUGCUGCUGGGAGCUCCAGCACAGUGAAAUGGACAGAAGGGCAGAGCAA

variants of: B1; assay: exon inclusion enrichment index; higher = more inclusion; WT1 exon 5 minigene, HEK293
measured-parameter: exon inclusion enrichment index
Give only the figure.

The measured exon inclusion enrichment index associated with A30U A31G reads 0.155

Recorded result, G5C C6A U7C G8A U10A A35C , exon inclusion enrichment index: 0.0232

Note to self: exon inclusion enrichment index recorded for G5U G8U C9U G26C was 0.177

---
Record summary for G5A C6G U7G C9A A37G G38U : reported exon inclusion enrichment index = 0.000981

Quick note, exon inclusion enrichment index for G5A C6U U7A G8U C9A G28C A29G landed at 0.178

Lab note: measured exon inclusion enrichment index of G5A C6U U7A G8U C9A G46C A47G was 0.159

// G5A U7C G8A U10C A30U : exon inclusion enrichment index value = 1.71

Data origin, for the record: the RNAGym collection of RNA variant scans (doi:10.1101/gr.219683.116)
